- studySystem: Mitogen-activated protein kinase 7 (Homo sapiens)
- protocolNotes: Binding affinity to ERK5 (unknown origin)
readoutKind: Kd (nM)

                                givensmiles  readoutkind  measuredresult
0  CN1C/C=C/CCOc2cccc(c2)-c2ccnc(n2)Nc2cccc(c2)C1           Kd              43

---

This section presents molecules with their documented IC50 values.
- studySystem: Mitogen-activated protein kinase 7 (Homo sapiens, UniProt Q13164)
- Sequence (Q13164 whole entry): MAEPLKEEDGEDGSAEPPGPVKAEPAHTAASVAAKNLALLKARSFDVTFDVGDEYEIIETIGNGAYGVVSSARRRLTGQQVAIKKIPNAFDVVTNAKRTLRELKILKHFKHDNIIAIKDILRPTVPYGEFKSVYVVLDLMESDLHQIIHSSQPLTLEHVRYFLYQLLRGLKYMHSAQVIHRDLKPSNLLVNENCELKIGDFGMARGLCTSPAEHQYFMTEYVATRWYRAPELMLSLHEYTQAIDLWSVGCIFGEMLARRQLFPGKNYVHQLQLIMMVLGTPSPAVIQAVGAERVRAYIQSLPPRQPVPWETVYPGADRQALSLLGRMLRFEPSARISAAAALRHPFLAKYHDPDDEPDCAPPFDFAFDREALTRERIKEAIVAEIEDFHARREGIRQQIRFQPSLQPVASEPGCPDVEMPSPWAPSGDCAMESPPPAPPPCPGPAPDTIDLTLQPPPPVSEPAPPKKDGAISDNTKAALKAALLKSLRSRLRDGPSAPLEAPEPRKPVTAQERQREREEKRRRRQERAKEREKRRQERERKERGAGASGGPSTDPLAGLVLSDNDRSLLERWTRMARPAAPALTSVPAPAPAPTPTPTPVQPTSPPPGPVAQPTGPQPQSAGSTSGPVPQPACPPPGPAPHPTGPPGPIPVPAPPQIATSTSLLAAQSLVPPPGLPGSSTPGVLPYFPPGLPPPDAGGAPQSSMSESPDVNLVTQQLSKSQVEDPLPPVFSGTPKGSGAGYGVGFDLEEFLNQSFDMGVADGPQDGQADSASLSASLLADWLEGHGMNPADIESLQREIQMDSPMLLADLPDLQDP
- protocolNotes: Inhibition of ERK5 (unknown origin)
readoutKind: IC50 (nM)

>>> df
                                   molecule                               studysystem  measuredresult
0  CN1C/C=C/CCOc2cccc(c2)-c2ccnc(n2)Nc2cccc(c2)C1 [ZOTIRACICLIB]  Mitogen-activated protein kinase 7 (Homo sapiens, UniProt Q13164)              43
1  CCC(C)N1c2ccccc2C(=O)N(C)c2cnc(Nc3ccc(C(=O)N4CCC(N5CCN(C)CC5)CC4)cc3OC)nc21 (configuration not stated)  Mitogen-activated protein kinase 7 (Homo sapiens, UniProt Q13164)              88
